Data origin, for the record: patent US20110172416A1

Molecular target: FXa (Homo sapiens, UniProt P00742)
Sequence (P00742 235-488 limits assumed): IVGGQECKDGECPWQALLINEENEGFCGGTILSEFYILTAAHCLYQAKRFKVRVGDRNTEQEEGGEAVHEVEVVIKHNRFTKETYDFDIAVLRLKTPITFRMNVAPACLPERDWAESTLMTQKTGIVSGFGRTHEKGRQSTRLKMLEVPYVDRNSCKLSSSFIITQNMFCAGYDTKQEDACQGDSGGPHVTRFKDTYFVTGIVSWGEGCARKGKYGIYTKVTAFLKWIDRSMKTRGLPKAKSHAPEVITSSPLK
Sequence (P00742 41-179 partner limits assumed): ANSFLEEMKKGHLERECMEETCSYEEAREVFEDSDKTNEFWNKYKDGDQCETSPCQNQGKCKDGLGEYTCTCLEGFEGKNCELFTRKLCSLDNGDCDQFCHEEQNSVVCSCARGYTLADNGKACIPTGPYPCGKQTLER
Assay: Measurement of activated factor X activity-inhibitory activity (chromogenic substrate S-2222)
Settings: negative logarithmic value of concentration suppressing reaction rate of control to 50%
pIC50: −log10 of the molar value.
quantity: pIC50

{"compound": "CC(=N)N1CCC(Oc2ccc(COC(=O)c3ccc4c(c3)CN(C(=N)N)CC4)cc2)CC1 [compound of Ex. 15, ditrifluoroacetate]", "tgt": "FXa (Homo sapiens, UniProt P00742)", "observed": 5.00}
{"compound": "CC(=N)N1CCC(Oc2ccc(C(=O)OCc3ccc4c(c3)CN(C(=N)N)CC4)cc2)CC1", "tgt": "FXa (Homo sapiens, UniProt P00742)", "observed": 5.30}

1: COCC1(C(=O)Oc2ccc3c(c2)CN(C(=N)N)CC3)CCN(c2ccncc2)CC1 [compound of Ex. 6, ditrifluoroacetate]
2: N=C(N)N1CCc2ccc(OC(=O)C3(COCc4ccccc4)CCN(c4ccncc4)CC3)cc2C1 [compound of Ex. 5, ditrifluoroacetate]
Problem: Short answer wanted: higher pIC50, 1 or 2 ? Please reply using the label of the selected record.
Result: 2
